test: Solubility of the compound in double distilled water; type: physicochemical
Quantity Kind: solubility (µg/mL)

Here's what some known entries look like.
Compound	Unit Abbrev	solubility
CC(O)C(N)C(=O)Nc1ccc2[nH]c3c(c2c1)CCN1C(=O)c2ccccc2N(C)C31 (centres undefined)	µg/mL	11
CSCCC(N)C(=O)Nc1ccc2[nH]c3c(c2c1)CCN1C(=O)c2ccccc2N(C)C31 (centres undefined)	µg/mL	15
CN1c2ccccc2C(=O)N2CCc3c([nH]c4ccc(OC(=O)CCC(=O)OCCN5CCCCC5)cc34)C21 (centres undefined)	µg/mL	18
CN1c2ccccc2C(=O)N2CCc3c([nH]c4ccc(NC(=O)C(N)Cc5c[nH]c6ccccc56)cc34)C21 (centres undefined)	µg/mL	12
CC(N)C(=O)Nc1ccc2[nH]c3c(c2c1)CCN1C(=O)c2ccccc2N(C)C31 (centres undefined)	µg/mL	28

I. CN1c2ccccc2C(=O)N2CCc3c([nH]c4ccc(OC(=O)[C@@H]5CCCN5)cc34)C21 (some centres undefined)
II. CN1c2ccccc2C(=O)N2CCc3c([nH]c4ccc(O)cc34)[C@H]21
III. CN1c2ccccc2C(=O)N2CCc3c([nH]c4ccc(OC(=O)CCC(=O)OCCN5CCOCC5)cc34)C21 (centres undefined)
# ascending order, key=solubility // format: requested-order list of labels
II, III, I

====

Biological target: DNA topoisomerase 1 (Homo sapiens) (UniProt P11387)
Sequence (whole entry): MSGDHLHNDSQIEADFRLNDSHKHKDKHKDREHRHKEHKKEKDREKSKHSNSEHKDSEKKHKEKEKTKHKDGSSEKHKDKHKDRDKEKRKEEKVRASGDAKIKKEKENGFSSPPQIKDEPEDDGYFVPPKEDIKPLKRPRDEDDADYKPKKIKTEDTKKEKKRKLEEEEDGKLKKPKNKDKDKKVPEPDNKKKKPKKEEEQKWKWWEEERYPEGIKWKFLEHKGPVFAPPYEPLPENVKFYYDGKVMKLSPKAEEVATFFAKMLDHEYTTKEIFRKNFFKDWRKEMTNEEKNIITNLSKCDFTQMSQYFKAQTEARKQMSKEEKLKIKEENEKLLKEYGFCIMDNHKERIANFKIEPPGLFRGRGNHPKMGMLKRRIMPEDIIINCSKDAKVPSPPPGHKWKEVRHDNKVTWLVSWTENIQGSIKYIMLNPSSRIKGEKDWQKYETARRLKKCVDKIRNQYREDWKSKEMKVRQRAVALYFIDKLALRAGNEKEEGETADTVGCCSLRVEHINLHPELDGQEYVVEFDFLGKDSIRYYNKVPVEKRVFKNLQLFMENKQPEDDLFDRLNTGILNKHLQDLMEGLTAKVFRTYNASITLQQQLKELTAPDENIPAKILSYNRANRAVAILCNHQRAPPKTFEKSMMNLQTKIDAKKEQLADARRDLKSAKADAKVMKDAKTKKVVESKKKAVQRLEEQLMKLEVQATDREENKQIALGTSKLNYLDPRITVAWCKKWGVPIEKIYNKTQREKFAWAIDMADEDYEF
Test: Inhibition of TOP1 (unknown origin) assessed as decrease in relaxation of supercoiled DNA using pBR322 plasmid DNA as substrate at 100 uM by ethidium bromide staining based gel electrophoresis
The source made the active and inactive calls. No cut-off for these calls is given here.
Valid outcomes are listed here; reply with one: TRUE for active, FALSE for inactive

Example entries begin here.
Compound	Class Label
CN1c2ccccc2C(=O)N2CCc3c([nH]c4ccc(OC(=O)[C@@H](N)CO)cc34)C21 (some centres undefined)	TRUE
CN1c2ccccc2C(=O)N2CCc3c([nH]c4ccc(N)cc34)C21 (centres undefined)	FALSE
CC(C)[C@H](N)C(=O)Oc1ccc2[nH]c3c(c2c1)CCN1C(=O)c2ccccc2N(C)C31 (some centres undefined)	TRUE

Next:
Assay outcome for CN1c2ccccc2C(=O)N2CCc3c([nH]c4ccc(OC(=O)[C@@H](N)COCc5ccccc5)cc34)C21 (some centres undefined) : what was it?
TRUE
